test system: 843782-103-R-J1-PDC complex spheroid viability; assay: Anticancer human tumor 843782-103-R-J1-PDC patient-derived lung adenocarcinoma cell line growth inhibition [RAS]; details: second compound 0.00316 µM; first compound 0.01 µM; hits give low values
// assign rule met if viability, T/C falls strictly below 90%, else rule not met (ties count as rule not met)

{"molecule": "CCN1CCN(Cc2ccc(Nc3ncc(F)c(-c4cc(F)c5nc(C)n(C(C)C)c5c4)n3)nc2)CC1 + C=CC(=O)N1CCN(c2nc(OCC3CCCN3C)nc3c(F)c(-c4nc(N)cc(C)c4C(F)(F)F)c(Cl)cc23)C(C)C1", "label": "rule not met"}
{"molecule": "CC(C)n1nc(-c2ccc3oc(N)nc3c2)c2c(N)ncnc21 + C=CC(=O)N1CCN(c2nc(OCC3CCCN3C)nc3c(F)c(-c4nc(N)cc(C)c4C(F)(F)F)c(Cl)cc23)C(C)C1", "label": "rule met"}

====

Test system: 843782-103-R-J1-PDC complex spheroid viability
Experiment: Anticancer human tumor 843782-103-R-J1-PDC cell line growth inhibition [RAS]; active = viability on the fitted dose curve at most 10% of control; inactive = the rest;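 note: viability read after seven days of compound exposure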
Details: second compound 0.0949 µM; first compound 0.1 µM
From the text: RAS pathway inhibitors in Combinations in Complex Spheroids A high-throughput screen of multi-cell type tumor spheroids was designed to identify active combinations of RAS pathway inhibitors and targeted small molecules. Complex spheroids include a stromal component modeled by human endothelial cells (HUVEC) and fibroblasts modeled by human mesenchymal stem cells (MSCs). […] Compounds. […] If the clinical Cmax for an agent had not been determined, the highest concentration tested was 10 microM. […]
Outcomes: True (active), False (inactive)

{"compound": "O=C(c1ccc(F)c(F)c1Nc1ccc(I)cc1F)N1CC(O)([C@@H]2CCCCN2)C1 + CCn1c(-c2cccnc2C(C)OC)c2c3cc(ccc31)N1CCOC(CC(NC(=O)C(C(C)C)N(C)C(=O)C3(F)CCN(C(=O)C#CC(C)(C)N(C)C)CC3)C(=O)N3CCCC(N3)C(=O)OCC(C)(C)C2)C1", "experimentalSystem": "843782-103-R-J1-PDC complex spheroid viability", "label": "False"}
{"compound": "C=CC(=O)Nc1cc(Nc2nccc(-c3cn(C)c4ccccc34)n2)c(OC)cc1N(C)CCN(C)C + CCn1c(-c2cccnc2C(C)OC)c2c3cc(ccc31)N1CCOC(CC(NC(=O)C(C(C)C)N(C)C(=O)C3(F)CCN(C(=O)C#CC(C)(C)N(C)C)CC3)C(=O)N3CCCC(N3)C(=O)OCC(C)(C)C2)C1", "experimentalSystem": "843782-103-R-J1-PDC complex spheroid viability", "label": "False"}
{"compound": "CCC(CC)c1cc(NC2CCC(N)C2)n2nccc2n1 (configuration not stated) + CCn1c(-c2cc(N3CCN(C)CC3)cnc2C(C)OC)c2c3cc(ccc31)-c1csc(n1)CC(NC(=O)C1CC1C)C(=O)N1CCCC(N1)C(=O)OCC(C)(C)C2", "experimentalSystem": "843782-103-R-J1-PDC complex spheroid viability", "label": "False"}
{"compound": "NC1c2ccccc2OC12CCN(c1cnc3c(N4CCCc5ncccc54)n[nH]c3n1)CC2 (configuration not stated) + CCn1c(-c2cccnc2C(C)OC)c2c3cc(ccc31)N1CCOC(CC(NC(=O)C(C(C)C)N(C)C(=O)C3(F)CCN(C(=O)C#CC(C)(C)N(C)C)CC3)C(=O)N3CCCC(N3)C(=O)OCC(C)(C)C2)C1", "experimentalSystem": "843782-103-R-J1-PDC complex spheroid viability", "label": "False"}
{"compound": "O=C(c1ccc(F)c(F)c1Nc1ccc(I)cc1F)N1CC(O)([C@@H]2CCCCN2)C1 + CCn1c(-c2cc(N3CCN(C)CC3)cnc2C(C)OC)c2c3cc(ccc31)-c1csc(n1)CC(NC(=O)C1CC1C)C(=O)N1CCCC(N1)C(=O)OCC(C)(C)C2", "experimentalSystem": "843782-103-R-J1-PDC complex spheroid viability", "label": "True"}
{"compound": "C[C@@H](NC(=O)c1ncnc(N)c1Cl)c1ncc(C(=O)Nc2cc(C(F)(F)F)c(Cl)cn2)s1 + CCn1c(-c2cc(N3CCN(C)CC3)cnc2C(C)OC)c2c3cc(ccc31)-c1csc(n1)CC(NC(=O)C1CC1C)C(=O)N1CCCC(N1)C(=O)OCC(C)(C)C2", "experimentalSystem": "843782-103-R-J1-PDC complex spheroid viability", "label": "False"}
{"compound": "CC(C)n1nc(-c2ccc3oc(N)nc3c2)c2c(N)ncnc21 + CCn1c(-c2cccnc2C(C)OC)c2c3cc(ccc31)N1CCOC(CC(NC(=O)C(C(C)C)N(C)C(=O)C3(F)CCN(C(=O)C#CC(C)(C)N(C)C)CC3)C(=O)N3CCCC(N3)C(=O)OCC(C)(C)C2)C1", "experimentalSystem": "843782-103-R-J1-PDC complex spheroid viability", "label": "False"}

Origin of values: PubChem BioAssay AID2060883
